Measured CC50 at 5 days of individual entries
Test: Cytotoxicity (CC50) in MT4 cells within the antiviral assay
Format: cell-based
Conditions: human, MT4 cells (mock-infected); MT4 cells, 5 days incubation, CellTiter-Glo; average over assays
endpoint: CC50 at 5 days (µM)

compound: O=C(NCc1c(F)cc(F)cc1F)c1cn2c(c(O)c1=O)C(=O)N1CC=CC[C@]13COCC[C@H]23
experimentalResult: 33.1
--
compound: C[C@H]1CO[C@]23CCC[C@H]2n2cc(C(=O)NCc4c(F)cc(F)cc4F)c(=O)c(O)c2C(=O)N13
experimentalResult: 16.4
--
compound: O=C(NCc1ccc(F)c(Cl)c1F)c1cn2c(c(O)c1=O)C(=O)N1CCO[C@]13CCCC[C@H]23 (racemic)
experimentalResult: 1.37
--
compound: C[C@@H]1CCO[C@@]23CCC[C@@H]2n2cc(C(=O)NCc4ccc(F)c(Cl)c4F)c(=O)c(O)c2C(=O)N13
experimentalResult: 7.27

Cited source: patent US9630978B2
